Target: T1, IL-18/IL-18BP complex (human, UniProt Q14116 37-193)
T1 construct: Non-covalent 1:1 complex; In the third screening step IL-18BP was linked to Luminex beads and then complexed to IL-18; also called IL-18 previously complexed to IL-18BP; complex IL-18-IL-18BP
T1 sequence 1: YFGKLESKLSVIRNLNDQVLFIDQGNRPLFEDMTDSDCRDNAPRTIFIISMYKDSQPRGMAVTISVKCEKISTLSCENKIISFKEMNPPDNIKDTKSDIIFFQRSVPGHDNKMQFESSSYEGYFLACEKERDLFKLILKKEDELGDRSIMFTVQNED
T1 sequence 2: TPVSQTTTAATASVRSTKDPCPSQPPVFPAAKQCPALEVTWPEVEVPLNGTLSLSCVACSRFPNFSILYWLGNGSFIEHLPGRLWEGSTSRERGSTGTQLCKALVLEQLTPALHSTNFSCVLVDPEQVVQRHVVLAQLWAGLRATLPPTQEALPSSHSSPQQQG
Assay: Luminex, antibody on IL-18 presented by IL-18BP-linked beads
Measured Fluorescence intensity, listed per entry for reference.
Kindly provide the numeric value in fluorescence intensity only, without the unit symbol.

Below are worked cases with known answers.
{"binder": "Antibody 132H4 (antibody, V domains shown, Mouse hybridoma monoclonal antibody) VH: EVKLVESGGGLVKPGGSLKLSCAASGFTFSNYAMSWVRQNPAKRLEWVATISSGGANIYYPDSVKGRFIISRDNARNTLYLQMSSLRSEDTAMYYCARGDYFNHFWFAYWGQGTLVTVSA VL: DVLMTQTPLSLPVSLGDQASISCRSSQSIVHSNGNTYLEWYLQKPGQSPKFLIYKVSNRFSGVPDRFSGSGSGTDFTLKINRVEAEDLGIYYCFQGSHVPWTFGGGTKLEIK", "test readout": "Fluorescence intensity", "assay value": 28}
{"binder": "Antibody 108F8 (antibody, V domains shown, Mouse hybridoma monoclonal antibody) VH: QIQLVQSGPDSKKPGETVKLSCRASGYTFTNYGMNWVKQAPGKGLKWMGWINTYSGVPTYADDFKGQFAFSLETSAATAFLQINNLKDEDTATYFCAREGYSTTRSMDYWGQGTSVTVSS VL: DIVMSQSPSSLAVSAGEKVTMSCKSSQSLLDSRTRKNYLVWYQQKPGQSPKLLIYWASTRGSGVPDRFTGSGSGTDFTLTISSVQAEDLAVYYCKQSYNLRTFGGGTKLEIK", "test readout": "Fluorescence intensity", "assay value": 45}
{"binder": "Antibody 109A6 (antibody, V domains shown, Mouse hybridoma monoclonal antibody) VH: EVQLQQSGAELVKPGASVKLSCTASGFKIKDTYIHWVIQRPAQGLEWIGRIDPANGNTIYGSKFQGKATLTADTSSNTAYIHLSSLTSGDSAVYYCAGYVWFAYWGQGTLVTVSA VL: DVVMTQVPLSLPVSLGDQASISCRSSQRLVHSNGNTYLHWFLQKPGQSPKLLIYTVSNRFSGVPDRFSGSGSGTDFTLKISRVEAEDLGVYFCSQSTLVPWTFGGGTKLEIK", "test readout": "Fluorescence intensity", "assay value": 33}

Now consider a different binder.
Problem: Would you mind telling me what Fluorescence intensity value was observed for Antibody 107C6 (antibody, V domains shown, Mouse hybridoma monoclonal antibody; also called clone #107C6) VH: QIQLVQSGPELKKPGETVKLSCRASGYTFTNYGMNWVKQAPGKGLKWMGWINTYSGVPTYADDFKGQFAFSLETSAATAFLQINNLKDEDTATYFCAREGYSTTRSMDYWGQGTSVTVSS VL: DIVMSQSPSSLAVSAGEKVTMSCKSSQSLLDSRTRKNYLVWYQQKPGQSPKLLIYWASTRGSGVPDRFTGSGSGTDFTLTISSVQAEDLAVYYCKQSYNLRTFGGGTKLEIK ?
Solution: 33
